- Tested on: IGROV1 ovarian
- assay.details: NCI tumour cell line growth inhibition, 48 h
# TGI per record follows

compound | TGI
CC1CC2C3CCC4=CC(=O)C=CC4(C)C3(F)C(O)CC2(C)C1(O)C(=O)COP(=O)(O)O (centres undefined) | > 500 µM
NC1NC=NC2C1N=CN2C1OC(CO)C2[O][Sn][O]C21 (centres undefined) | > 100 µM
COc1cc2oc(-c3cccc(C(=O)Nc4ccc(Cl)cc4)c3)cc(=O)c2c(OC)c1OC | > 100 µM
O=C(CNc1ccccn1)Nn1cnc2ccc(S(=O)(=O)Nc3ccccn3)cc2c1=O | > 100 µM
C=C1C[C@H]2C=Nc3cc(OCCCOc4cc5c(cc4OC)C(=O)N4CC(=C)C[C@H]4C=N5)c(OC)cc3C(=O)N2C1 | 0.0341 µM
COc1cnc2c(c1)C(=O)c1c-2n(CCCNC2=NCCS2)c(=O)c2cc(F)ccc12 | 15.5 µM
O=C1N=C2SC=C(NC(=S)Nc3ccccc3)N2NC12c1ccccc1-c1ccccc12 | > 10 µM
COc1ccc(C2c3cc4c(cc3OC(NNc3ccccc3)C2C)OCO4)cc1 (centres undefined) | > 100 µM
C#Cc1cccc(Nc2ncnc3cc(NC(=O)CCl)ccc23)c1 | 6.84 µM

###

- Tested on: HT29 colon
- assay.details: NCI tumour cell line growth inhibition, 48 h
property: TGI

molecule | assay.target | measurement
O=C(NN1C(=O)C(Cl)C1c1ccccc1O)c1ccccc1O (configuration not stated) | HT29 colon | > 100 µM
CC(=O)OCC1OC(n2c(=S)n(-c3ccc([N+](=O)[O-])cc3)c(=O)c3ccccc32)C(OC(C)=O)C(OC(C)=O)C1OC(C)=O (configuration not stated) | HT29 colon | > 100 µM
O=C(Cc1ccccc1)NN1C(=O)C(Cl)C1c1ccccc1Cl (configuration not stated) | HT29 colon | > 100 µM
CC(C)=CCCC(C)(OC1OC(CO)C(O)C(O)C1O)C1CCC2(C)C1C(O)CC1C3(C)CCC(O)C(C)(C)C3C(OC3OC(CO)C(O)C(O)C3OC3OC(C)C(O)C(O)C3O)CC12C (configuration not stated) (tested in a mixture with another compound) | HT29 colon | > 75 µM
CN=C(N)c1ccc(N=C(N)c2ccc(-c3ccc(C(N)=Nc4ccc(C(N)=NC)cc4)cc3)cc2)cc1 | HT29 colon | > 100 µM
COc1ccc(C2c3cc4c(cc3OC(NNc3ccccc3)C2C)OCO4)cc1 (configuration not stated) | HT29 colon | 51.7 µM
O[C@]12C=C(c3nccc4c3[nH]c3ccccc34)[C@@H]3CCN(CCCC/C=C\CC1)C[C@@]31CC3/C=C\CCCCN3[C@H]12 (some centres not stated) | HT29 colon | 1.36 µM

###

# TGI per record follows
- Test system: MALME-3M melanoma
- assay.details: NCI tumour cell line growth inhibition, 48 h

compound | assay.target | TGI
CCN1CCN(c2nc(C)cc(N(CCCNc3ccnc4cc(Cl)ccc34)Cc3ccc4c(c3)OCO4)n2)CC1 | MALME-3M melanoma | 3.34 µM
FC(F)(F)c1ccc2c(c1)N(CCCNCCN1CCOCC1)c1ccccc1S2 | MALME-3M melanoma | 7.15 µM
Nc1nncc2c1c(Br)cn2C1OC(CO)C(O)C1O (centres undefined) | MALME-3M melanoma | > 100 µM
Brc1ccc(C2C3CSc4ccccc4C3=NN2c2ccccc2)cc1 (centres undefined) | MALME-3M melanoma | > 100 µM
CCC(NC(C)c1ccccc1)C(=O)c1ccc(OCc2ccccc2)c(OCc2ccccc2)c1 (centres undefined) | MALME-3M melanoma | > 100 µM
O=C(O)c1nc2ccccc2nc1Nc1ccc(Cl)c(Cl)c1 | MALME-3M melanoma | > 100 µM
COc1cc2c(c(OC)c1OC)-c1ccc(NN(C(=O)c3ccccc3)C(=O)c3ccccc3)c(=O)cc1[C@@H](NC(C)=O)CC2 (tested in a mixture with another compound) | MALME-3M melanoma | > 100 µM
CCOC(=O)N/N=C(/N)c1cccc(Br)c1 | MALME-3M melanoma | > 100 µM
CN1CCN(CC(=O)N(C)c2ccc(N=C(c3ccccc3)c3c(O)[nH]c4ccc(C#N)cc34)cc2)CC1 | MALME-3M melanoma | 3.39 µM

###

- System: A498 renal
- assay.details: NCI tumour cell line growth inhibition, 48 h

molecule | TGI
CC(C)Oc1c(C2(c3ccccc3)SCCCS2)c(=O)c1=O | > 100 µM
S=c1sc2c(s1)SC(c1ccccc1)CS2 (stereo not given) | > 100 µM
Nc1nc(Nc2ccc(Cl)c(Cl)c2)nc2nc[nH]c12 | 21.7 µM
O[C@]12C=C(c3nccc4c3[nH]c3ccccc34)[C@@H]3CCN(CCCC/C=C\CC1)C[C@@]31CC3/C=C\CCCCN3[C@H]12 (stereo not given in full) | 2.83 µM
CC1=NN(c2nc(N)nc(NS(=O)(=O)c3cc(C)c(Cl)cc3S)n2)C(C)(C)C1 | > 10 µM
CCCCC1=CSC(c2ccccc2)=C(c2ccccc2)S1 | > 100 µM
CN(C)CCNC(=O)c1cccc2c1nc(-c1ccc(F)cc1)c1ccccc12 | 16.2 µM
O=C(Nc1ccc(Oc2ccc(F)cc2)cc1)[C@@H]1C[C@@H](Cc2ccc(F)cc2)CN1C(=O)Cn1ccnn1 | 27.9 µM
Oc1ccc(Br)cc1C=Nc1cccc(C(F)(F)F)c1 | > 100 µM
CCOCC1(COCC)CCC(c2[nH]ncc2CN(C)CCNC)CC1 | > 100 µM

###

- Tested on: NCI/ADR-RES ovarian
- assay.details: NCI tumour cell line growth inhibition, 48 h; in the data active = GI50 below about 0.43 µM; inactive = the rest
Possible outcomes: T (active), F (inactive)

compound | label
CN(C)c1ccc(/C=C\c2ccnc3ccccc23)cc1 | F
CN=C(N)c1ccc(N=C(N)c2ccc(-c3ccc(C(N)=Nc4ccc(C(N)=NC)cc4)cc3)cc2)cc1 | F
O=C1NC(=S)S/C1=C\c1cn(-c2ccccc2)nc1-c1ccccc1 | F
COc1cc(-c2cc(/C=C/C(=O)c3ccc(F)c(F)c3)[nH]n2)cc(OC)c1OC | F
NC(N)=N/N=C/c1c(-c2ccsc2)nc2n1CCS2 | F
CSc1ccc(C2=C(c3ccccc3)C(=O)OC2)cc1 | T
COc1ccc(C(O)c2cc3c(N)c(C(=O)Nc4ccc(Cl)cc4)sc3nc2C)cc1 (stereo not given) | F
O=C(Nc1ccc(Oc2ccc(F)cc2)cc1)[C@@H]1C[C@@H](Cc2ccc(F)cc2)CN1C(=O)Cn1ccnn1 | F
O=C1Nc2ccc(Cl)cc2/C1=C\c1c(-c2ccc(Cl)cc2)nc2sc(C3CC3)nn12 | F
CC(C)=CCc1cc2c(cc1O)C1=C(C(=O)C3=C(C1=O)S(=O)(=O)CCN3)C(C=C(C)C)O2 (stereo not given) | F
O=C(Nc1ccc(Oc2ccc3nc(NC(=O)c4ccco4)[nH]c3c2)cc1)Nc1cc(C(F)(F)F)ccc1F | F
CN1CCN(CC(=O)N(C)c2ccc(N=C(c3ccccc3)c3c(O)[nH]c4ccc(C#N)cc34)cc2)CC1 | F
CSC1=NC(=Nc2c(C)cccc2C)C2(CCC(C(C)(C)C)CC2)N1c1ccc(Cl)cc1 (stereo not given) | F
O=C1NC(=NCc2ccccc2Cl)S/C1=C\c1ccc2ncccc2c1 | F
O=C1Nc2ccc(Br)cc2C12CC(c1ccccc1)=NN2 (stereo not given) | F

###

- Test system: ACHN renal
- assay.details: NCI tumour cell line growth inhibition, 48 h

molecule | TGI
COc1cc(/C=C2\C(=O)N(Cc3ccc(Cl)cc3)c3ccccc32)cc(OC)c1OC | 8.37 µM
CC(C)C1CNC(=O)C2(C=NC(C(C)C)CNC(=O)C3(C=N1)CCCO3)CCCO2 (stereo not given) | > 10 µM
COc1ccc(Nc2nc3ccccc3n3cccc23)cc1OC | 69.7 µM
Nc1nc2c(N)cc(C(F)(F)F)cc2nc1-c1ccccc1 | > 100 µM
Cc1ccc(CNc2ccc(Br)cc2)cc1 | 41.7 µM
CCOCC1(COCC)CCC(c2[nH]ncc2CN(C)CCNC)CC1 | > 100 µM
C/C(=N\O)c1ccc2ccc3ccccc3c2c1 | > 100 µM
COC(=O)C(=O)Cc1nc2ccccc2s1 | > 100 µM
CCOC1OC(CO)C(O)CC1n1ccc(=O)[nH]c1=O (stereo not given) | > 100 µM
CO[C@H]1C[C@@H]2CC[C@@H](C)[C@@](O)(O2)C(=O)C(=O)N2CCCC[C@H]2C(=O)O[C@H]([C@H](C)C[C@@H]2CC[C@@H](OC(=O)C(C)(CO)CO)[C@H](OC)C2)CC(=O)[C@H](C)/C=C(\C)[C@@H](O)[C@@H](OC)C(=O)[C@H](C)C[C@H](C)\C=C/C=C/C=C/1C | > 10 µM
COc1cc2c(Nc3ccc(NC(=O)Nc4ccc(Cl)c(C(F)(F)F)c4)c(Cl)c3)ncnc2cc1OCCCN1CCN(C)CC1 | > 100 µM
CC(=O)C1CCN(c2ccccc2)C1 (stereo not given) | > 100 µM
COc1cc([N+](=O)[O-])c(OC)cc1-c1nc2sc(C)c(C)n2c1/C(N)=N/C(=N)N | > 100 µM
N#CCCn1[nH]c(=O)c(Cl)c(Cl)c1=O | 30.7 µM
CCCNC(=O)Nc1c([N+](=O)[O-])cc(C(F)(F)F)cc1[N+](=O)[O-] | > 100 µM
CC(C)(C)c1cc(C(=O)Nc2ccccc2C(=O)NCCN)cc(C(C)(C)C)c1 | 3.46 µM
FC(F)(F)c1ccc2c(c1)N(CCCNCCN1CCOCC1)c1ccccc1S2 | 24.7 µM
O=C(Cc1ccccc1)NN1C(=O)C(Cl)C1c1ccccc1Cl (stereo not given) | > 100 µM
Cc1cccc(C2ON=C(c3ccccc3)N2C23CC4CC(CC(C4)C2)C3)c1 (stereo not given) | > 10 µM
O[C@]12C=C(c3nccc4c3[nH]c3ccccc34)[C@@H]3CCN(CCCC/C=C\CC1)C[C@@]31CC3/C=C\CCCCN3[C@H]12 (stereo not given in full) | 1.05 µM
